Origin of measurements: a collection of fitness landscapes (doi:10.1126/science.1257360)

enrichment ratio for assorted variants
B1: PhoQ; a variant is named by its letters at X, in order, P23837 (parent)
chain: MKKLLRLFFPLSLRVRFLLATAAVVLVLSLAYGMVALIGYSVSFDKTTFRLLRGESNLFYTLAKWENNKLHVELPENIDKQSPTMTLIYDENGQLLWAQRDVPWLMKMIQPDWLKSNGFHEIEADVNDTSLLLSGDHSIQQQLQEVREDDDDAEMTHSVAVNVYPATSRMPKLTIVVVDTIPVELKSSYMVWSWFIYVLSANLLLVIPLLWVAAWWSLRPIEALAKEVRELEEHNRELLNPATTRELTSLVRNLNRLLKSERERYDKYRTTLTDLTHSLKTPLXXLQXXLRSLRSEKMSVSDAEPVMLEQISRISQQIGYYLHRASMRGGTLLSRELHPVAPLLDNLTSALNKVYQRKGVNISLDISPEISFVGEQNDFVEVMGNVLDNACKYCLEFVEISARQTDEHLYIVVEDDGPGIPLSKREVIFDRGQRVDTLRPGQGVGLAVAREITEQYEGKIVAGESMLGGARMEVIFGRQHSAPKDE

# Variants of: B1
# TEST_DETAILS: enrichment ratio after two sorts for PhoP signalling (ratio (wild type AVST 3.29)); higher = more functional
# SETUP_CONDITIONS: with PhoP (E. coli)
The full ranking holds about 140,000 sequences; the median of “enrichment ratio after two sorts for PhoP signalling” is about 0, and the highest 2% start at about 11. For the sample, the highest values were picked, then their nearest neighbours and some sequences at random.

RESIDUE_CHANGE	enrichment ratio
QEFH	≤ 0.25
TVCE	13.5
MEFH	4.99

Now look at this one.
Request: Which measured enrichment ratio value corresponds to `AHAY` ?
Response: 1.08
